# TARGET ENTITY: FGFR/KL-complex (Homo sapiens, UniProt Q9UEF7)
# Construct: expressed in transfected cells; host or cells: 293T HEK cells overexpressing human KL (293/KL)
# Sequence (Q9UEF7 34-1012): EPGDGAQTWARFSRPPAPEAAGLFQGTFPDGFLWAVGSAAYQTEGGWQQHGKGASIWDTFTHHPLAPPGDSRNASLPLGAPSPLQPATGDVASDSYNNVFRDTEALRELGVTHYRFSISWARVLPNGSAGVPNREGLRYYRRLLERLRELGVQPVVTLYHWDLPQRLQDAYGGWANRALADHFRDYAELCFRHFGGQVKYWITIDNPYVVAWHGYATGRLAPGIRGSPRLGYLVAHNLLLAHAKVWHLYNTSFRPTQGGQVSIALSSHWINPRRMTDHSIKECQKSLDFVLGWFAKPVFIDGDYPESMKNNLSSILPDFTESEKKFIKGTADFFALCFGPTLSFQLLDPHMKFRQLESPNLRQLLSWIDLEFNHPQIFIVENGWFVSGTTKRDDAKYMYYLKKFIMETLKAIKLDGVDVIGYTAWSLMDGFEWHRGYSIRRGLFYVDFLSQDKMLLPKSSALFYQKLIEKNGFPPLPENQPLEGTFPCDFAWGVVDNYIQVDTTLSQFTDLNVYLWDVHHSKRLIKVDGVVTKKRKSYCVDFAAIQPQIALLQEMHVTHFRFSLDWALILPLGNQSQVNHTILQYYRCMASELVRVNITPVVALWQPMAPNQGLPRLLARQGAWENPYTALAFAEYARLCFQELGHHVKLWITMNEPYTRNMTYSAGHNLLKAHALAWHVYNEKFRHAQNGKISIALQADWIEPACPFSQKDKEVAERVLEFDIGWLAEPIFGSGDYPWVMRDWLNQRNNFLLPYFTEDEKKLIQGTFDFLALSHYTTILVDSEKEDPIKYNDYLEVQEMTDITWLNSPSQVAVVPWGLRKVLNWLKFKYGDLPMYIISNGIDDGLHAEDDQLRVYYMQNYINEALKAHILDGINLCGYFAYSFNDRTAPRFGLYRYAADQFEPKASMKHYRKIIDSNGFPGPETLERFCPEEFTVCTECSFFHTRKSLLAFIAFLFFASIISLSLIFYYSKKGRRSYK
# PROCEDURE TEXT: FGF23-antagonism measured by relative p-Erk levels in 293/KL cells
# Assay type: cell-based
# SETTINGS: Table 2, block of FGF23-signaling, p-Erk
Where no end group is shown, it is not given here.
OBSERVATION TYPE: IC50 (nM)

ERDPLNVLKPRARM [Peptide 8] ... 97

(I) DPLNVLKPRARM [Peptide 9]
(II) DPLGVVRPRARM [Peptide 12]
(III) PMASDPLGVVRPRARM [Peptide 10]
(IV) ASDPLGVVRPRARM [Peptide 11]
Qu. hey, can you rank those sequences up there by IC50? biggest number first please # respond with the labels, arranged in the requested order
Ans. I, II, IV, III
(I: 542 nM, II: 70.9 nM, IV: 17.1 nM, III: 3.8 nM)

Each recorded value in this set is attributed to patent US20230382966A1.
